Origin of values: the supplement of paper PMC6555819

# Tested on: LXRb homodimer (NR concentration 270 nM)
# experiment: PBM binding z-score (relative to random genomic background probes); higher = stronger binding; sequences stand for … in GC…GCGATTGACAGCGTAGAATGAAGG
Reported PBM binding z-score values for the following sequences.
measurement.kind: PBM binding z-score

{"columns": ["sequence.entry", "test.result"],
 "data": [
  ["TCATATAGGTAAACAGGTGAAAGTCCGTAAGTTA", 0.0234],
  ["GTAGCAAGGTGAATAGGTCGTTGATGAGTAGGCG", -1.35],
  ["AGTCAAAGATCATCTAGGTAACGTAAGATATGCT", -0.391],
  ["CGACCAAGGTCATAGGAGGTCAGTGAAGACAGAT", 0.466],
  ["ATATGTAGGTTAAGGGTCAGTCAGGTTGGTTCGC", 0.965],
  ["ATACCGAGGTGATCGTGAGGTCGTTGATACTAAC", -0.183],
  ["CGTCCAAAGTCAAGGTCAGTGAAAGAGACTCGAA", 0.209],
  ["GCTAGTTGGTCAGTAACAGGTCACACACCGGTCG", -0.167],
  ["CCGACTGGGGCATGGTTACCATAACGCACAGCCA", -1.07],
  ["CCGACTGGGGCAGAAACGTTACCATACCATCCGG", -0.864],
  ["CCGACTGGGGCTAGGTTACCATAACGCACAGCCA", -0.938],
  ["ACAGACAGGTGATGAAGGTGACTCAGGCTATCAT", -0.348],
  ["ATCGAAAGGTCGATGGTGAGTATACCCACCCGAA", 0.391],
  ["GCTCGGAGGACAAGCTCAGAGCTTTGTCCGTAGA", -0.639],
  ["CCAGACAGGTCAAAGGTAACTCAGTCTGGTACGC", 0.453],
  ["GGCACGAGGGCAAAGTTGATAGCATCTGTCGACG", -0.874],
  ["GCGACTGGGACATCAGCAGGTTACCATAACTTAA", -0.768],
  ["TCGAGTAGGTTAGGGGAATTCAGAATGGCGTCGA", -0.435],
  ["CAAACTAGGTCAAAGAGGTCAAAGTCCGTGCGTA", 2.23],
  ["TTACCAAGGTGAGCTGAGGTCGTTAATCCAACTC", -1.14],
  ["TCAGACAGGTGAAGGTAACTCAAGTACGCAGTCG", 0.174],
  ["TCTAGTTGGTCAAAGGTCACATACTCGAAATGCG", 2.28],
  ["TCTTGTAGATCAGCAGGTTAGGAAAGCTGGCCAA", -0.394],
  ["TCTCGGAGGACACGAAGTTCAGAGCTTTCCAGAG", -0.97],
  ["GCTAGTTGGTCAGTAAAAGGTCATACACCGGTCG", 0.896],
  ["CCGTACGGGTCACTCCAGGTTATAGCATCGGAGT", -0.751]
]}

---

# Test system: PPARg DBDmut:RXRa IVT, anti-PPARg (DBD mutation: PPARg1 K132A/R137A, NR concentration 270 nM, RXRa partner concentration 90 nM)
# experiment: PBM binding z-score (relative to random genomic background probes); higher = stronger binding; sequences stand for … in GC…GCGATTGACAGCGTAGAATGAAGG
// 0.0 strictly below 0.3 in PBM binding z-score; 1.0 otherwise

{"columns": ["sequence.entry", "category"],
 "data": [
  ["AATACAGCGTCATCGTAGGCCAGAGTACGCACAG", 1.0],
  ["CGAACGAGGGCCTGAGTTGATAGCAAATGCCGAT", 0.0],
  ["GGTTGTAGATCAAGGTTAAGAAAGACTAAGCTAA", 1.0],
  ["CCGACTGGGGCTTAAGGTTACCATAAGCCAGCCC", 0.0],
  ["CCTAGCAGGCTAATCTGGGTCACTCAAGGCTTGA", 1.0],
  ["CCTCGGAGGACAACAGGAGGTCCGAGCTGCCAGA", 0.0],
  ["TCATATGGGTAAATGCTAGGTGAAAGTCCGATCT", 1.0],
  ["CCGACTGGGACAAGGTTACCATAACGCACAGCCA", 0.0],
  ["TGTAGTTGGTCACGGAGGTCACACACGACGGGTA", 1.0],
  ["CAAACTAGGTCACCGGAAGGTCAAAGTCCGCATG", 1.0],
  ["ACAGACAGGTGATGAAGGTAACTCTGGCTATCAT", 1.0],
  ["CTCGAAAGGTCGTGCTCAGGTGAGTAAACCAAAC", 0.0]
]}
